All figures here come from patent US20210246166A1.

Here, each record is paired with measured human MASP1 IC50 data.
Target: T1, Recombinant human MASP1 enzyme (fragment corresponding to amino acids 297-699, C-terminal His Tag) (human, UniProt P48740 297-699)
T1 sequence: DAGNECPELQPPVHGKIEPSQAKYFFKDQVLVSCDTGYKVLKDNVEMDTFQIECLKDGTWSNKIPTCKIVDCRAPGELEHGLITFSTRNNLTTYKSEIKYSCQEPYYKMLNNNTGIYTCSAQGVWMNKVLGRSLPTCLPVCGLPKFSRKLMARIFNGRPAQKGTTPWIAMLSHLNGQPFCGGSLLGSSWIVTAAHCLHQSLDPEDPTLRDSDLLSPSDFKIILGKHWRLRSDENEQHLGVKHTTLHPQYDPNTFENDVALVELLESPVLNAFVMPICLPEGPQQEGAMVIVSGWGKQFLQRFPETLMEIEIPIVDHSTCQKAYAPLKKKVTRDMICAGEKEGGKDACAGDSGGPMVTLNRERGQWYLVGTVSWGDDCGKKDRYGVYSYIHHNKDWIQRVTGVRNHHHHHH
Experiment: cell-based or functional assay
Bridge positions count the residues as written; N and C are the ends. Square brackets hold non-standard residues; d marks the D form. Ends that are not written are not given here. Oic = O=C(O)[C@@H]1C[C@@H]2CCCC[C@@H]2N1; Pen = CC(C)(S)[C@H](N)C(=O)O; PEG3 = NCCOCCOCCOCCC(=O)O; Sar = CNCC(=O)O
Give just the number in nM; leave the unit off.

[Sar]ICSRSLP[Oic]I[Pen]IP[PEG3]-OH (disulfide 3-11; N-terminus assumed; SMILES CC[C@H](C)[C@H](NC(=O)CNC)C(=O)N[C@H]1CSSC(C)(C)[C@@H](C(=O)N[C@H](C(=O)N2CCC[C@H]2C(=O)NCCOCCOCCOCCC(=O)O)[C@@H](C)CC)NC(=O)[C@H]([C@@H](C)CC)NC(=O)[C@@H]2C[C@@H]3CCCC[C@@H]3N2C(=O)[C@@H]2CCCN2C(=O)[C@H](CC(C)C)NC(=O)[C@H](CO)NC(=O)[C@H](CCCNC(=N)N)NC(=O)[C@H](CO)NC1=O) [((N-Me)G)-IC+SRSLP-(Oic)-I-(Pen)+IP-(PEG2(13 atoms))-OH] | 4.5

As a next step, examine the binder that follows.
Incoming: Can you share its human MASP1 IC50? I mean this binder: [Sar]ICSRSLP[Oic]I[Pen]IPR-OH (disulfide 3-11; N-terminus assumed; SMILES CC[C@H](C)[C@H](NC(=O)CNC)C(=O)N[C@H]1CSSC(C)(C)[C@@H](C(=O)N[C@H](C(=O)N2CCC[C@H]2C(=O)N[C@@H](CCCNC(=N)N)C(=O)O)[C@@H](C)CC)NC(=O)[C@H]([C@@H](C)CC)NC(=O)[C@@H]2C[C@@H]3CCCC[C@@H]3N2C(=O)[C@@H]2CCCN2C(=O)[C@H](CC(C)C)NC(=O)[C@H](CO)NC(=O)[C@H](CCCNC(=N)N)NC(=O)[C@H](CO)NC1=O) [((N-Me)G)-IC+SRSLP-(Oic)-I-(Pen)+IPR-OH]
Outgoing: 2.35
